Hello, the source for this data is ChEMBL document CHEMBL1133007, in case you need it.

- MEASUREMENT_PROTOCOL: Evaluated for the hydrolysis rate in phosphate buffer at 5.0 at 37 degrees Centigrade.
- Assay type: ADME
- EXPERIMENTAL_CONDITIONS: pH 5
MEASURED_ATTRIBUTE: half-life (days)
Report the figure in days without appending any unit label.

What half-life value was documented for this molecule, COc1ccc2cc(C(C)C(=O)OCCCCOC(=O)CCN3CCN(C)CC3)ccc2c1 (stereo unspecified) ? 18

* * *

- MEASUREMENT_PROTOCOL: Evaluated for the hydrolysis rate in 80% human serum (mean; n=2) at a pH of 7.4
- Type: ADME
- EXPERIMENTAL_CONDITIONS: pH 7.4
MEASURED_ATTRIBUTE: half-life (min)
Report the figure in min without appending any unit label.

What half-life value was documented for this molecule, COc1ccc2cc(C(C)C(=O)OCCCCOC(=O)CCN3CCN(C)CC3)ccc2c1 (stereo unspecified) ? 4

* * *

- MEASUREMENT_PROTOCOL: Evaluated for 50% hydrolysis rate in 80% human serum at a pH of 7.4
- Format: ADME
- EXPERIMENTAL_CONDITIONS: pH 7.4
Measured half-life of individual entries
Report the figure in min without appending any unit label.

Example compounds with recorded half-life:
COMPOUND	half-life (min)
COc1ccc2cc(C(C)C(=O)OCCOC(=O)CN3CCOCC3)ccc2c1 (stereo not given)	20
COc1ccc2cc(C(C)C(=O)OCCOC(=O)CN3CCN(C)CC3)ccc2c1 (stereo not given)	26
COc1ccc2cc(C(C)C(=O)OCCCCOC(=O)CN3CCN(C)CC3)ccc2c1 (stereo not given)	3

What half-life value was documented for this compound, COc1ccc2cc(C(C)C(=O)OCCCCOC(=O)CCCN3CCN(C)CC3)ccc2c1 (stereo not given) ? 1

What half-life value was documented for this compound, COc1ccc2cc(C(C)C(=O)OCCCCOC(=O)CN3CCOCC3)ccc2c1 (stereo not given) ? 13

* * *

- MEASUREMENT_PROTOCOL: Evaluated for 50% hydrolysis rate in phosphate buffer at 5.0 at 37 degrees C
- Format: ADME
- EXPERIMENTAL_CONDITIONS: pH 5
MEASURED_ATTRIBUTE: half-life (days)
Report the figure in days without appending any unit label.

COMPOUND	ENDPOINT_VALUE
COc1ccc2cc(C(C)C(=O)OCCOC(=O)CN3CCOCC3)ccc2c1 (centres undefined)	6.7
COc1ccc2cc(C(C)C(=O)OCCOC(=O)CN3CCN(C)CC3)ccc2c1 (centres undefined)	66.5
COc1ccc2cc(C(C)C(=O)OCCCCOC(=O)CN3CCN(C)CC3)ccc2c1 (centres undefined)	79.9

What half-life value was documented for this compound, COc1ccc2cc(C(C)C(=O)OCCCCOC(=O)CCCN3CCN(C)CC3)ccc2c1 (centres undefined) ? 37.2

* * *

- MEASUREMENT_PROTOCOL: Evaluated for 50% hydrolysis rate in phosphate buffer at pH 7.4 at 37 degrees C
- Assay type: ADME
Measured half-life of individual entries
Report the figure in h without appending any unit label.

Example compounds with recorded half-life:
COMPOUND	ENDPOINT_VALUE
COc1ccc2cc(C(C)C(=O)OCCOC(=O)CN3CCOCC3)ccc2c1 (centres undefined)	33.6
COc1ccc2cc(C(C)C(=O)OCCCCOC(=O)CN3CCN(C)CC3)ccc2c1 (centres undefined)	182
COc1ccc2cc(C(C)C(=O)OCCOC(=O)CN3CCN(C)CC3)ccc2c1 (centres undefined)	57.6

Then there is this compound:
What half-life value was documented for this compound, COc1ccc2cc(C(C)C(=O)OCCCCOC(=O)CCCN3CCN(C)CC3)ccc2c1 (centres undefined) ? 48
